Target: T1, recombinant human TL1A (human, UniProt O95150 71-251)
T1 chain: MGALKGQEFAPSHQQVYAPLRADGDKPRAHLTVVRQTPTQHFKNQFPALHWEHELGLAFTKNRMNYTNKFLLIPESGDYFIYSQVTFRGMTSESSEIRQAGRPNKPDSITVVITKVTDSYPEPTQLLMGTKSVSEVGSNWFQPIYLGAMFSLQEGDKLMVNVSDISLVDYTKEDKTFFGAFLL
Assay: cell-based or functional assay
MEASURED ATTRIBUTE: TF-1 NF-κB reporter cell bioassay IC50 (nM)
Record the value in nM, omitting the unit from your answer.

Tell me the measured TF-1 NF-κB reporter cell bioassay IC50 of TL1A-0260 (antibody, human IgG1, kappa, V domains shown, human IgG1 effector-function-minimized/kappa; also called bio-TL1A-0260 (biotinylated reporter)) VH: QVQLVQSGAEVKKPGASVKVSCKASGYDYTYYGISWVRQAPGQGLEWMGWISTYNTGTHYAPSLQGRVTMTTDTSTSTAYMELRSLRSDDTAVYYCARESYYGSGAFRGGMDVWGQGTTVTVSS VL: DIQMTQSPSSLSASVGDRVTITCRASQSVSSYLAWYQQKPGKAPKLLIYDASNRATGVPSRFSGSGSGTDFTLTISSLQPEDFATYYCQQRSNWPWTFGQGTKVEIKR , please.
29.2
